assay_system: UniProt:A0A7G9P699
Sequence (A0A7G9P699 entry or part of it): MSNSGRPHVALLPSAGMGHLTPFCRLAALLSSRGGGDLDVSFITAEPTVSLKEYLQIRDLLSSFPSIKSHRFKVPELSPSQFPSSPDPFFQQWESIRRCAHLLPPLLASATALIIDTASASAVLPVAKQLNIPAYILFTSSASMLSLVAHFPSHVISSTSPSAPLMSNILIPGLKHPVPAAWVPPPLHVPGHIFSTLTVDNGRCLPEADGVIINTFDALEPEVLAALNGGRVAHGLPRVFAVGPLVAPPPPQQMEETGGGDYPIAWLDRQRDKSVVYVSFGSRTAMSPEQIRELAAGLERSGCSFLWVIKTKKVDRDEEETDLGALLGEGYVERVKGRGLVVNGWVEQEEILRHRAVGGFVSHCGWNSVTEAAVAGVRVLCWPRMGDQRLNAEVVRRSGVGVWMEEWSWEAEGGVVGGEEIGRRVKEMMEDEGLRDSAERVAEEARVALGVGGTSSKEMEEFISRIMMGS
assay_explanation: Glycosyltransferase activity assay, purified AbCGT (wild type) with aglycon acceptors and UDP-Glc
Type: biochemical, Aloe barbadensis
measurement_conditions: aglycon acceptor with UDP-Glc, pH 7.4, 30 °C, up to 12 h; Reaction-1 to -3

- molecule: "CC(=O)c1c(O)cc(O)c(C(C)=O)c1O [Compound 12]"
  conversion rates, O,N,S-glycosylation: "0%"
- molecule: "CC(=O)c1c(C)cc(O)cc1O [Compound 9]"
  conversion rates, O,N,S-glycosylation: "0%"
- molecule: "COc1ccc(Cc2c(O)cc(O)cc2O)cc1OC [Compound 20]"
  conversion rates, O,N,S-glycosylation: "0%"
- molecule: "CC(=O)c1c(O)cc(O)cc1O [Compound 11, phloracetophene]"
  conversion rates, O,N,S-glycosylation: "0%"
- molecule: "Cc1cc(O)cc(O)c1C=O [Compound 8]"
  conversion rates, O,N,S-glycosylation: "0%"
- molecule: "O=C(c1ccc(O)c(O)c1)c1c(O)cc(O)cc1O [Compound 19]"
  conversion rates, O,N,S-glycosylation: "0%"
- molecule: "CCCCC(=O)c1c(O)cc(O)cc1O [Compound 16]"
  conversion rates, O,N,S-glycosylation: "0%"
- molecule: "O=C(CCc1ccc(O)cc1)c1c(O)cc(O)cc1O [Compound 17, phloretin]"
  conversion rates, O,N,S-glycosylation: "0%"
- molecule: "O=Cc1c(O)cc(O)cc1O [Compound 10]"
  conversion rates, O,N,S-glycosylation: "0%"
- molecule: "COc1ccc(CCc2ccc(O)cc2O)cc1 [Compound 21]"
  conversion rates, O,N,S-glycosylation: "0%"
- molecule: "O=C(OCCCc1ccccc1)c1c(O)cc(O)cc1O [Compound 18]"
  conversion rates, O,N,S-glycosylation: "0%"
- molecule: "COc1cc(OC)c(C(C)=O)c(OC)c1 [Compound 15]"
  conversion rates, O,N,S-glycosylation: "0%"
